Tested on: PC-3 prostate
experimental details: NCI tumour cell line growth inhibition, 48 h
Where a SMILES comes first, the peptide text is derived from it. [ ]: non-standard residue; d: D form. NMeY = CN[C@@H](Cc1ccc(O)cc1)C(=O)O; dNMeF = CN[C@H](Cc1ccccc1)C(=O)O; Sar = CNCC(=O)O
value kind: TGI

Please look up its TGI: CCN(CC)CCn1c2cc3c(cc2c(=O)c2cccnc21)OCO3
> 10 µM

Please look up its TGI: CC(=O)c1nc2ccccc2n1CC(=O)c1ccc(Cl)cc1
60.1 µM

Please look up its TGI: C/C=C/C(C#N)(Cc1ccccc1)OP1(=O)OC(c2ccccc2)C(C)N1C (stereo not given)
> 100 µM

Please look up its TGI: O=C(NNc1ccccc1)OCc1ccccc1
> 100 µM

Please look up its TGI: Cc1cc(N(CCCCl)CCCCl)ccc1C=Nc1cccc(Cl)c1
25.9 µM

Please look up its TGI: N#CSCc1c(Cl)cccc1Cl
> 100 µM

Please look up its TGI: CC[C@H](C)[C@@H]1NC(=O)[C@H](Cc2ccc(O)cc2)N(C)C(=O)[C@H](Cc2ccccc2)NC(=O)CN(C)C(=O)[C@@H]2CCCN2C(=O)[C@@H](Cc2ccccc2)N(C)C(=O)[C@H](CC(C)C)NC1=O (cyclo(F[NMeY]IL[dNMeF]P[Sar]))
6.21 µM

Please look up its TGI: O=C(O)c1nc2ccccc2nc1Nc1ccc(F)cc1
90.7 µM

Please look up its TGI: CC(C)(C)CC(C)(C)N=C(N)NO
> 100 µM

Please look up its TGI: O=C1OC(C2=CC(=O)c3ccccc3C2=O)C(Cl)=C1Cl (stereo not given)
75.5 µM

====

Field: TGI. Provide a value for each of the molecules that follow.
System: SN12C renal
experimental details: NCI tumour cell line growth inhibition, 48 h

Under SN12C renal: TGI value of Nc1ccc2cc3[nH]c4cc(N)ccc4c3nc2c1 ?
1.17 µM

Under SN12C renal: TGI value of COc1ccc2[nH]c(=O)c(/C=C/C(=O)/C=C/c3ccc(O)c(OC)c3)cc2c1 ?
4.49 µM

Under SN12C renal: TGI value of O=C(Nc1nc2ccccc2n1Cc1ccc(Cl)cc1)NC12CC3CC(CC(C3)C1)C2 ?
> 100 µM

Under SN12C renal: TGI value of O=C1Oc2ccccc2C(=O)/C1=C/N1C(=O)N/C(=C\c2cccc(O)c2)C1=O ?
> 100 µM

Under SN12C renal: TGI value of CC1=CC2=C(C(N)=O)C(=O)OC2(C)C(c2ccccc2)C1 (centres undefined) ?
> 100 µM

Under SN12C renal: TGI value of COc1ccc(C2CC(c3ccc4ccccc4c3O)=NN2C(C)=O)cc1OC (centres undefined) ?
> 100 µM

Under SN12C renal: TGI value of NNc1ccccc1Cl ?
> 100 µM

Under SN12C renal: TGI value of COc1cc2c(cc1Oc1ccc(OC)c3c1CC1c4c(cc(OC)c(OC)c4-3)CCN1C)CC1c3c(cc(OC)c(OC)c3-2)CCN1C (centres undefined) ?
19.3 µM

Under SN12C renal: TGI value of O=C1[C@@H]2C3SC(c4ccccc43)[C@@H]2C(=O)N1c1ccccc1 ?
> 100 µM

Under SN12C renal: TGI value of Cc1ccc(S(=O)(=O)SCc2ccccc2CSS(=O)(=O)c2ccc(C)cc2)cc1 ?
33.6 µM

Under SN12C renal: TGI value of COc1ccc2c(c1)CC[C@@H]1[C@@H]2CC[C@]2(C)C(=O)/C(=C/c3ccncc3)C[C@@H]12 ?
> 100 µM

Under SN12C renal: TGI value of CO[C@@H]1C=C[C@@]23c4cc5c(cc4C(O)N(CC2O)C3C1)OCO5 (some centres undefined) ?
> 100 µM

Under SN12C renal: TGI value of CCOC(=O)N1N=NC2C3OC(C[C@@]3(C#N)OC(C)=O)[C@H]21 (some centres undefined) ?
> 100 µM

Under SN12C renal: TGI value of CCCCCCCCCCCCCCCCOCC(COP(=O)([O-])OCC[n+]1ccc(N(C)C)cc1)OCC (centres undefined) ?
34.6 µM

Under SN12C renal: TGI value of Nc1ccc(Nc2c3ccccc3nc3ccccc23)cc1 ?
> 10 µM

Under SN12C renal: TGI value of CO[C@H]1C[C@@H]2CC[C@@H](C)[C@@](O)(O2)C(=O)C(=O)N2CCCC[C@H]2C(=O)O[C@H]([C@H](C)C[C@@H]2CC[C@@H](OP(C)(C)=O)[C@H](OC)C2)CC(=O)[C@H](C)/C=C(\C)[C@@H](O)[C@@H](OC)C(=O)[C@H](C)C[C@H](C)/C=C/C=C/C=C/1C ?
25.8 µM

Under SN12C renal: TGI value of COc1c(Cl)cc(S(=O)O)cc1Cl ?
> 100 µM

Under SN12C renal: TGI value of CC(=O)Nc1ccccc1-c1cnc2ccccc2n1 ?
> 100 µM

Under SN12C renal: TGI value of COc1ccc(/C=C/C(=O)c2ccc3cc(OC)c(OC)cc3c2)cc1OC ?
31.2 µM
